Just for reference, patent US20220251241A1 is where these values come from.

Recorded IC50, Protease Assay-Casein substrate values for a group of binders are listed next.
- experimental.target: HTRA1 (construct not given) (Homo sapiens (Human), UniProt Q92743 23-480, limits assumed)
- Sequence (Q92743 23-480 limits assumed): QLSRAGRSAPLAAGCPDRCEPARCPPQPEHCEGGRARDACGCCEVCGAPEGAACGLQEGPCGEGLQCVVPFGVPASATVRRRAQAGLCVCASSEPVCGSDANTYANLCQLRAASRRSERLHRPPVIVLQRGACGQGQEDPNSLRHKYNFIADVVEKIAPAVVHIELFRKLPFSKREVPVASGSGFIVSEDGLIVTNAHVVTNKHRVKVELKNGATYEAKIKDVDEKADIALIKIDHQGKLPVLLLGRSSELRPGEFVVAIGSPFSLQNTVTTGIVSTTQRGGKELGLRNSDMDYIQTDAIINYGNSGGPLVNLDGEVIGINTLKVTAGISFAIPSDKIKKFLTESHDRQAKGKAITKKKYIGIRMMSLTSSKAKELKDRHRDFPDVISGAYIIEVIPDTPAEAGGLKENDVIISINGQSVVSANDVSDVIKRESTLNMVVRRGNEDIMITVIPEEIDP
- experiment.notes: cell-based or functional assay
Numbers only here, please. The scale is nM.

# lookup: IC50, Protease Assay-Casein substrate of antibody 9F8 (antibody, V domains shown, Mouse hybridoma monoclonal antibody) VH: QVQLQQPGAELVRPGSSVKLSCKASGYAFTTYWMHWVKQRPIQGLEWIGNIDPSDSETHYNQKFRDKATLTVDKSSSTAYMQLSSLTSEDSAVYYCARDYGAFDVWGTGTTVTVSS VL: QAVVTQESALTTSSGETVTLTCRSSTGAVTTRNFASWVQEKPDHLFTGLIGGTNNRAPGVPARFSGSLIGDKAALTITGAQTEDEAIYFCALWYSNLWVFGGGTKLTVL
0.19

Could you share which IC50, Protease Assay-Casein substrate value was measured for antibody 65G8 (antibody, V domains shown, Mouse hybridoma monoclonal antibody) VH: QVQLQQSGPQLVRPGASVKISCKASGYSFTSYWMHWVKQRPGQGLEWIGMIDPSDSETRLNQKFKDKATLTIDKSSSTAYMQLSSPTSEDSAVYYCTRDYFDYWGQGTTLTVSS VL: QIVLTQSPAIMSTSPGEKVTMTCSASSSVSYMYWYQQKPGSSPRLLIYDTSNLASGVPVRFSGSGSGTSYSLTISRMEAEDAATYYCQQWSSYPYTFGGGTKLEIK ?
0.06

Which IC50, Protease Assay-Casein substrate is reported for this binder? antibody 24F7 (antibody, V domains shown, Mouse hybridoma monoclonal antibody; also called parental 24F7 antibody) VH: QVQLQQSGAELVRPGASVKLSCKASGYTFTDYEMHWVKQTPVHGLEWIGAIDPETGGTAYNQKFKGKATLTADKSSSTAYMELRSLTSEDSAVYYCTREGYSYDGGGYYFDYWGQGTTLTVSS VL: QIVLTQSPAIMSASPGEKVTMTCSVSSSVSYMYWYQQKPGSSPRLLIYDTSNLASGVPVRFSGSGSGTSYSLTISRMEAEDAATYYCQQWSSYPTFGGGTKLEIK
0.15

Quick one: IC50, Protease Assay-Casein substrate for antibody 55B12 (antibody, V domains shown, Mouse hybridoma monoclonal antibody) VH: QVQLQQPGAELVKPGASVKLSCKASGYTFTNYWMHWVKQRPGQGLEWIGNIDPSDSETHYNQKFKDKATLAVDKSSSTAYMQLSSLTSEDSAVYYCAREDSSGYGAYWGQGTLVTVSA VL: QIVLTQSPAIMSASPGEKVTMTCSASSSVNYMHWYQQKSGTSPKRWIYDTSKLASGVPDRFSGSGSGTSYSLTISSMEAEDAATYYCQQWSSHPLTFGAGTKLELK ?
0.13
